- Study target: SARS-CoV-2 Spike protein (SARS-CoV-2, UniProt P0DTC2 14-1208)
- Assay text: HT-SPR (Carterra LSA), mAb coupled to chip, Spike in solution, 1:1 Langmuir fit
Property: Kd

GET /value?item= mAb 1444 (antibody, V domains shown, human IgG1) VH: QVQLVQSGAEVKKPGASVKVSCKASGYTFTAYYMHWVRQAPGQGLEWMGWINPNSDDTNYAQKFQGRVTMTRDTSISTAYMELSRLRSDDTAVYYCAREEGVFTIGDRYFDLWGRGTLVSVSS VL: QTVVTQEPSFSVSPGGTVTLTCGLSSGSVSTSYYPSWYQQTPGQAPRTLIYNTNTRSSGVPDRFSGSILGNKAALTITGAQADDESDYYCVLYMGSGIWVFGGGTKLTVLG &field=Kd returns ≤ 0.0221 nM

meta.source: patent US20220356229A1
